Experiment: gradient 5% acetonitrile 3 min, to 50% in 2 min, to 85% in 15 min, held 3 min, 100 µL/min
Conditions: column: Zorbax Extend-C18 2.1 x 50 mm; eluents: water / acetonitrile, 0.1% formic acid
outcome measure: RP-LC retention time (s)
Give just the number in s; leave the unit off.

Q: Quote RP-LC retention time reported for Cc1cc(=O)n(CC(=O)NCc2ccc(Cl)cc2)c(N)n1 please.
Result: 613

Q: Provide RP-LC retention time value for the following compound: Cc1noc(COC2CCN(C(=O)CCc3c(C)noc3C)CC2)n1
Result: 661

Q: Return RP-LC retention time (reported value) for this compound: COc1cccc(CNC(=O)Cn2nc3c(Oc4ccc(Cl)cc4)nccn3c2=O)c1
Result: 849

Q: Respond only with RP-LC retention time recorded for Cc1noc(-c2cccc(OC3CN(S(=O)(=O)c4c(C)nn(C)c4C)C3)c2)n1
Result: 850

Q: Please list RP-LC retention time recorded for the compound C=CCN1CCN(c2ccc3nnc(CCc4nc(-c5ccc(OC)cc5)no4)n3n2)CC1
Result: 603

Q: Return value of RP-LC retention time for input O=C(C1=CN(c2cccc(Br)c2)c2ccccc2S1(=O)=O)N1CCCC1 , no commentary.
Result: 819

Q: Dear colleague, please send me the reported RP-LC retention time for CN(C)C(CNC(=O)C1(c2ccccc2)CCOCC1)c1cn(C)c2ccccc12 (stereo not given) when you can.
Result: 588

Q: Supply reported RP-LC retention time belonging to this compound: CC1CCc2ccccc2N1C(=O)c1cccs1 (stereo not given)
Result: 913

Q: Given Cn1c(-c2ccccc2)c(C(=O)C(=O)N2CCOCC2)c2ccccc21 , respond with its RP-LC retention time.
Result: 800

Q: Report RP-LC retention time, nothing else, for this compound: CC(C)(C)C(=O)NCc1cccnc1-c1ccccc1
Result: 600

----------
Assay: gradient 5% acetonitrile 3 min, to 50% in 2 min, to 85% in 15 min, held 3 min, 100 µL/min
Conditions: column: Zorbax Extend-C18 2.1 x 50 mm; eluents: water / acetonitrile, 0.1% formic acid
outcome measure: RP-LC retention time (s)
Supply the numeric figure in s, leaving out any unit text.

Q: Return the recorded RP-LC retention time value; entry: O=C(c1ccco1)N1CCCC(c2nn[nH]n2)C1 (stereo unspecified)
Result: 596

Q: Assign RP-LC retention time to the following record: O=C(CCc1conc1-c1ccc(F)cc1)NC1CCCCCC1
Result: 969

Q: Determine its reported RP-LC retention time: O=C(NCCOc1ccc(F)cc1)C(c1ccccc1)n1cccc1 (stereo unspecified)
Result: 927

Q: Please give the documented RP-LC retention time of COc1cccc(CNC(=O)c2ccc3c(c2)nc2n3CCN(C3CCCCC3)C2=O)c1
Result: 774

Q: Item O=C(NCCc1c[nH]c2ccc(F)cc12)c1cncc(Br)c1 : provide RP-LC retention time
Result: 796

Q: Look up and state reported RP-LC retention time for COC(=O)c1ccc(N2C=C(C#N)S(=O)(=O)c3ccc(C)cc32)cc1
Result: 887

----------
Test: gradient 5% acetonitrile 3 min, to 50% in 2 min, to 85% in 15 min, held 3 min, 100 µL/min
Settings: column: Zorbax Extend-C18 2.1 x 50 mm; eluents: water / acetonitrile, 0.1% formic acid
Decide using RP-LC retention time: a value greater than or equal to 900 s is criterion met, a smaller one is criterion not met.

Q: API: above_or_equal(metric=RP-LC retention time, cutoff=900 s) for item Cc1cc2[nH]c(C(=O)Nc3ccc(F)c(F)c3)c(CN3CCOCC3)c2s1
Result: criterion not met

Q: Check the entry CCOC(=O)Cc1csc(NC(=O)Cn2nc3c(cc2=O)CCCC3)n1 : does RP-LC retention time equal or exceed 900 s?
Result: criterion not met

Q: Test whether the compound CN(C)c1cccc(-c2nn3c(CSc4ccccc4)nnc3s2)c1 records RP-LC retention time of 900 s or higher.
Result: criterion met

Q: Please indicate if the recorded RP-LC retention time for CC(C)c1cc(C(=O)Nc2ccc(Cl)cc2)nn1C1CCS(=O)(=O)C1 (stereo not given) meets or exceeds 900 s.
Result: criterion met

Q: Evaluate COc1cccc(-c2noc(Cc3nnc(-c4ccc(F)cc4)o3)n2)c1OC : RP-LC retention time at minimum 900 s?
Result: criterion met

Q: Has Cc1nc(Nc2ncc(C(=O)Nc3c(C)cccc3Cl)s2)cc(N2CCN(CCO)CC2)n1 a recorded RP-LC retention time greater than or equal to 900 s?
Result: criterion not met

Q: Item CCC(C)Nc1cc(C)nc2c(C)c(-c3ccc(Cl)cc3)nn12 (stereo not given) with RP-LC retention time of 900 s or above?
Result: criterion not met

Q: Exam item: decide whether the reported RP-LC retention time for Cc1cc(S(=O)(=O)N2CCCC(Cn3cnc4cccnc43)C2)ccc1F (stereo not given) is at least 900 s.
Result: criterion not met
